tested on: Serum; assay: Drug level in C57BL/6 mouse serum at 15 mg/kg/day assessed as enzyme activity; type: ADME, organism-based; details: in vivo, read-out: Drug uptake
Observation Type: concentration (nM)
Numbers only here, please. The scale is nM.

Fill in the blank: the reported concentration of CCCCN1C[C@H](O)[C@@H](O)[C@H](O)[C@H]1CO is ____. 490
